What follows is a collection of Kd values obtained with CDK4-CyclinD1 (Homo sapiens, UniProt P11802).
Sequence (P11802 whole entry): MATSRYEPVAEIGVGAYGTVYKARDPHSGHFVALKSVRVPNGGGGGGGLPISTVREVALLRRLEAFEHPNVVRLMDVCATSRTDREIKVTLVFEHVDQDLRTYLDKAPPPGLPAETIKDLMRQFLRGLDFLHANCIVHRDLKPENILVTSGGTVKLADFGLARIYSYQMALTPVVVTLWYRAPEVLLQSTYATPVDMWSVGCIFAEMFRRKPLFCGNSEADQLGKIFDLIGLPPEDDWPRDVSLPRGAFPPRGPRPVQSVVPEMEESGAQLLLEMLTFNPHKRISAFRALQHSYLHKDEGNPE
Sequence (P24385 whole entry partner): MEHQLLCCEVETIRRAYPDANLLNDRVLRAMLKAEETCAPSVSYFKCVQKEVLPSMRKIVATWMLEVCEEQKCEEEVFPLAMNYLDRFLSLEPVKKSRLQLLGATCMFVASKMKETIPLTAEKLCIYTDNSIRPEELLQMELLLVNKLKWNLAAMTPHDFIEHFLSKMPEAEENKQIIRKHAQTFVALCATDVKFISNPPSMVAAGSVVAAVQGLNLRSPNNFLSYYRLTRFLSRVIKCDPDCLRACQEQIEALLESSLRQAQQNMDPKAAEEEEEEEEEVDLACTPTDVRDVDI

[in] What does the data say about its Kd? Entry: Cc1nc2c(F)cc(-c3nc(Nc4ccc(C(=O)NCCCCCCOc5cccc6c5C(=O)N(C5CCC(=O)NC5=O)C6=O)cc4)ncc3F)cc2n1C(C)C (centres unmarked)
[out] 23 nM

Others:
[in] What does the data say about its Kd? Entry: "CNC(=O)c1ccc(Nc2ncc3cc(C(=O)N(C)C)n(C4CCCC4)c3n2)cc1"
[out] 3 nM
